- conditions.used: 298.15 K; 20000 kPa; Liquid; Vibrating tube method
± gives the expanded uncertainty stated by the source.
measured.endpoint: mass density
Your answer should be a number followed by the unit of measure.

Completed entries (count: 2):
>>> print(df.to_string())
   entry_smiles  measured_endpoint                result
0      Cc1cccs1       mass density   1030.4 ± 0.53 kg/m3
1       c1ccsc1       mass density  1074.94 ± 0.51 kg/m3

Could I get mass density for every one of these entries?
1. Cc1ccsc1
2. Cc1ccc(C)s1

-- reply
1031.29 ± 0.51 kg/m3
995.59 ± 0.5 kg/m3

###

Assign mass density to each entry below.
- conditions.used: 298.15 K; 10000 kPa; Liquid; Vibrating tube method
Give bare numbers, in kg/m3.

// solved cases for mass density follow
   entry_smiles  measured_endpoint   result
0       c1ccsc1       mass density  1067.05
1      Cc1ccsc1       mass density  1023.89
2      Cc1cccs1       mass density  1022.84

Okay, now this compound:
-- ask Entry `Cc1ccc(C)s1` has what mass density?
-- reply 988.14

###

Field: mass density. Provide a value for each of the compounds that follow.
- conditions.used: 293.15 K; 55000 kPa; Liquid; Vibrating tube method
Numbers only, in kg/m3.

Provide mass density values for the following items, in order.
1. Cc1cccs1
2. Cc1ccsc1
3. Cc1ccc(C)s1
4. c1ccsc1

-- reply
1. 1057.79
2. 1058.15
3. 1022.35
4. 1103.77

###

- conditions.used: 288.15 K; 2000 kPa; Liquid; Vibrating tube method
So I've got a bunch of molecules here, and I need their mass density values.
Give bare numbers, in kg/m3.

In [3]: df
Out[3]:
   entry_smiles  measured_endpoint  unit_abbrev  result
0   Cc1ccc(C)s1       mass density        kg/m3   991.9

Each molecule below has a recorded value; state its mass density.
1. Cc1ccsc1
2. c1ccsc1
3. Cc1cccs1

-- reply
1028.05
1072.11
1027.12

###

Please provide measured mass density for the entries that follow.
- conditions.used: 288.15 K; 15000 kPa; Liquid; Vibrating tube method
± gives the expanded uncertainty stated by the source.
Kindly format the answer as number then unit.

>>> df
   entry_smiles                result
0       c1ccsc1  1082.24 ± 0.51 kg/m3

Give measured mass density for every item shown.
1. Cc1ccsc1
2. Cc1cccs1
3. Cc1ccc(C)s1

-- reply
1. 1037.61 ± 0.51 kg/m3
2. 1036.86 ± 0.53 kg/m3
3. 1001.53 ± 0.5 kg/m3

###

- conditions.used: 333.15 K; 30000 kPa; Liquid; Vibrating tube method
measured.endpoint: mass density (kg/m3)
Give bare numbers, in kg/m3.

Would you please look over these solved cases?
                              compound  measured_endpoint   result
0         Cc1ccsc1 [3-methylthiophene]       mass density  1005.22
1                  c1ccsc1 [thiophene]       mass density  1045.21
2  Cc1ccc(C)s1 [2,5-dimethylthiophene]       mass density   970.97

Consider now this further compound.
-- ask Return reported mass density; argument: Cc1cccs1 [2-methylthiophene]
-- reply 1003.86

Measured values drawn from the NIST ThermoML archive (doi:10.1016/j.jct.2016.08.005) for this set.
